Target: T1, Human TIGIT-His (human, UniProt Q495A1 22-141, biotinylated in the ForteBio Fab assay)
T1 construct: bought (Creative Biomart); also called Biotinylated Human TIGIT HIS; TIGIT-His monomer; not shown: His tag
T1 sequence (looked up): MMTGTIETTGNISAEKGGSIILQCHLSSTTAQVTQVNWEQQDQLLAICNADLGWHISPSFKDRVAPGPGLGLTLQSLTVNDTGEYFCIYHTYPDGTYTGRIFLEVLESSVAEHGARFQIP
Assay: ForteBio BLI, Fab KD, monovalent
quantityName: pKd
Quick note: pKd values are minus log10 of concentrations in mol/L.

Req: # return recorded pKd for entry Fab of anti-TIGIT clone 26521 (Fab, V domains shown) VH: QVQLVQSGAEVKKPGSSVKVSCKASGGTFSSYAISWVRQAPGQGLEWMGGIIPIFGTANYAQKFQGRVTITADESTSTAYMELSSLRSEDTAVYYCARLHLGSSAYYGMDVWGQGTTVTVSS VL: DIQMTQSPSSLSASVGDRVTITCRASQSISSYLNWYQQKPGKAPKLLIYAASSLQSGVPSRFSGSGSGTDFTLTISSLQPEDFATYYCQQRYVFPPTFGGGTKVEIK
Resp: 8.01

Req: Could you please provide reported pKd for Fab of anti-TIGIT clone 32919 (Fab, V domains shown, Fab) VH: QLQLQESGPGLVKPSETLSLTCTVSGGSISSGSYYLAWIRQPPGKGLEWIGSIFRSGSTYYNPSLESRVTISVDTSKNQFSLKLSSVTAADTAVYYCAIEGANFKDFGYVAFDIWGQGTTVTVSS VL: EIVLTQSPATLSLSPGERATLSCRASQSVSSYLAWYQQKPGQAPRLLIYDASNRATGIPARFSGSGSGTDFTLTISSLEPEDFAVYYCQQENPRPRTFGGGTKVEIK ? Thanks!
Resp: 8.85
